- tgt: HIV Env, isolate Du172.17 (HIV)
- method.summary: cell-based or functional assay
assay.endpoint: IC80 (µg/ml) with constrains (µg/mL)
Use µg/mL as the unit, but write only the number.

**Q:** Which IC80 (µg/ml) with constrains is listed for PGDM1400 (antibody, V domains shown) VH: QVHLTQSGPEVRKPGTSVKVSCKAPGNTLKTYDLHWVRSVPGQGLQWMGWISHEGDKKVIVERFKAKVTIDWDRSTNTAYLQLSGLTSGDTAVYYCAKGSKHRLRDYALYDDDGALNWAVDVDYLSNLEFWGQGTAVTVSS VL: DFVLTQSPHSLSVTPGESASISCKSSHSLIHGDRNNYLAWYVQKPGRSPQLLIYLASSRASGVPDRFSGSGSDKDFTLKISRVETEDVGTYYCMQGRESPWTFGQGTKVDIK ?
**A:** 21.7

**Q:** Subsequent entry: ePGDM9 (antibody, V domains shown) VH: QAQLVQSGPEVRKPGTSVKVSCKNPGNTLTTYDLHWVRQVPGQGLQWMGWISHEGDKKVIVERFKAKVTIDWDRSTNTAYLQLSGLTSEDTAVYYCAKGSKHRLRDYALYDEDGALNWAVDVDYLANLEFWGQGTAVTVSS VL: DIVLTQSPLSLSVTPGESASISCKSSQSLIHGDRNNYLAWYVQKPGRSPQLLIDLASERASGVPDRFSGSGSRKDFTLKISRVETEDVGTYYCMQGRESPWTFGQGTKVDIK
**A:** 3.46

**Q:** Next up: ePGDM5 (antibody, V domains shown) VH: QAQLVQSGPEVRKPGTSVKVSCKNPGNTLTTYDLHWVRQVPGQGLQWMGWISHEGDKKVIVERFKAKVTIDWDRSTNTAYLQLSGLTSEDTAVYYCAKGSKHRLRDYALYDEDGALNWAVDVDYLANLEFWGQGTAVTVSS VL: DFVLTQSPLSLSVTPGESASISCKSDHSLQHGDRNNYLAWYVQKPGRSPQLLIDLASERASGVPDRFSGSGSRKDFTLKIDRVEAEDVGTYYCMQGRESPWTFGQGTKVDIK
**A:** 5.98

**Q:** ePGDM13 (antibody, V domains shown) VH: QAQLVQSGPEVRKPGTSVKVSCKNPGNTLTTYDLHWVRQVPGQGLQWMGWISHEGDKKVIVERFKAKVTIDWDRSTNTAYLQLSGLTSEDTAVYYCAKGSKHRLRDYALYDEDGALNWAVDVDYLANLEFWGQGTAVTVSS VL: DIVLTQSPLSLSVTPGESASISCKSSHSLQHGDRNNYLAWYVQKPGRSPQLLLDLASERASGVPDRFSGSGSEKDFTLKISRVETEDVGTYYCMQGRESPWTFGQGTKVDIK , same question.
**A:** 6
